target: active human PAI-1, recombinant, wild-type, non-glycosylated (E. coli) (human, UniProt P05121 24-402); assay: cell-based or functional assay
Sequence (P05121 24-402): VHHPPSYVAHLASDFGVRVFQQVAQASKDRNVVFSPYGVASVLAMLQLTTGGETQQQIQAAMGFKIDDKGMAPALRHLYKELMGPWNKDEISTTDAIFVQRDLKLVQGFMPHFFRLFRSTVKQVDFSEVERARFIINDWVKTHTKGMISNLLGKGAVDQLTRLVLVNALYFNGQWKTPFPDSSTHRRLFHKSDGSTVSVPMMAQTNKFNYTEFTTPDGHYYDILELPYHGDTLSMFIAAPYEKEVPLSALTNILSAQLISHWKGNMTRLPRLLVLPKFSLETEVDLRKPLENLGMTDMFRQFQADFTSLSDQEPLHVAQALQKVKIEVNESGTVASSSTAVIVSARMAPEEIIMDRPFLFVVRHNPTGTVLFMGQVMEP
Entries and their Chromogenic (IC50 in nM) human values follow.
Quick reminder: number only, in nM, skip the unit.

Return value of Chromogenic (IC50 in nM) human for input Antibody 17 scFv (scFv) QVQLQQSGAEVKKPGSSVKVSCKASGGTFSSYAISWVRQAPGQGLEWMGGIIPTFGTANYAQKFQGRVTITADESTSTAYMELSGLRSEDTAVYYCAREKRQWLEGHFDYWGRGTPVTVSSDIQMTQSPSFLSASIGDRVTITCRASEGIYHELAWYQQKPGKAPKLLIYRASSLASGAPSRFSGSGSGTDFTLTISSLQPDDFATYYCQQYSNYPLTFGGGTKLEIK , no commentary. 71.5

Return value of Chromogenic (IC50 in nM) human for input Antibody 23 scFv (scFv) QVQLQQSGAEVKKPGSSVKVSCKASGGTFSSYAISWVRQAPGQGLEWMGGIIPTFGTANYAQKFQSRVTITADESTSTAYMELSGLRSEDTAVYYCAREKRQWLEGHFDYWGRGTPVTVSSDIQMTQSPSFLSASIGDRVTITCRASEGIYHSLAWYQQKPGKAPKLLIYRASSLASGAPSRFSGSGSGTDFTLTISSLQPDDFATYYCQQYSNYPLTFGGGTKLEIK , no commentary. 1.6

Return value of Chromogenic (IC50 in nM) human for input Antibody 04 scFv (scFv) QVRLQQSGAEVKKPGSSVKVSCKASGGTFSSYAISWVRQAPGQGLEWMGGIIPTFGTANYAQKFRGRVTITANESTSTAYMELSGLRSEDTAVYYCAREKRQWLEGRFDYWGRGTLVTVSSDIQMTQSPSFLSASIGDRITITCRASEGIYHSLAWYQQKPGKAPKLLIHRATSLASGTPSRFGGSGSGTDFALTISSLQPDDFATYYCQQYSNYPLTFGGGTKLEIK , no commentary. 6.6
